Reported microsomal CLint at 1 uM values follow for various molecules
- test_summary: Metabolic stability in human hepatic microsome
- Format: in vitro ADME
- setup_conditions: microsomes, pH 7.4; human hepatic microsome, NADPH(+); read-out: CL NADPH(+)
Starred links: 1 amine or outer side, 2 acyl side, 3 side chain; linkers in the order of their positions; H or OH if unused. Non-standard residues stand in square brackets, D forms with d. Residues, ends and D or L forms follow the SMILES beside them. NMeF = CN[C@@H](Cc1ccccc1)C(=O)O; NMeGABA = CN(CCCC(=O)[*:2])[*:1]; NMeL = CN[C@@H](CC(C)C)C(=O)O; NMeV = CN[C@H](C(=O)O)C(C)C; β3hA = C[C@H](N)CC(=O)O
State the answer as a number, implicitly in µL/min/mg.

According to the records, this molecule CC[C@H](C)[C@@H]1NC(=O)[C@H](CC(C)C)N(C)C(=O)[C@H](C)NC(=O)CCCN(C)C(=O)C[C@H](C)NC(=O)[C@H]([C@@H](C)O)NC(=O)[C@H](Cc2ccccc2)NC(=O)[C@H](C(C)C)N(C)C(=O)[C@H](Cc2ccccc2)N(C)C1=O [DP-824] (cyclo(A[NMeL]I[NMeF][NMeV]FT[β3hA][NMeGABA])) displays microsomal CLint at 1 uM of 501

---

- test_summary: Metabolic stability in human hepatic microsome
- Type: in vitro ADME
- setup_conditions: microsomes, pH 7.4; human hepatic microsome, NADPH(+); read-out: CL NADPH(+)
Positions of bridges follow the written chain, without caps; N, C: chain ends. Non-standard residues stand in square brackets, D forms with d. Residues, ends and D or L forms follow the SMILES beside them. *: point of attachment. NMeF = CN[C@@H](Cc1ccccc1)C(=O)O; NMeL = CN[C@@H](CC(C)C)C(=O)O; NMeV = CN[C@H](C(=O)O)C(C)C; NMeA = CN[C@@H](C)C(=O)O; Piperidide = C1CCN(*)CC1; Sar = CNCC(=O)O; tBu = CC(C)(C)*
measured_attribute: microsomal CLint at 1 uM (µL/min/mg)
State the answer as a number, implicitly in µL/min/mg.

As a guide, the following entries are already answered.
# molecule, microsomal CLint at 1 uM [µL/min/mg]
measured = [
    ("CC(C)C[C@H]1C(=O)N(C)[C@@H](Cc2ccccc2)C(=O)N[C@H](C(=O)N2CCCCC2)CC(=O)N(C)[C@@H](C)C(=O)N[C@@H]([C@@H](C)O)C(=O)N(C)CC(=O)N[C@@H](COC(C)(C)C)C(=O)N(C)[C@@H](Cc2ccccc2)C(=O)N1C [DP-710] ([NMeA]T[Sar]S(tBu)[NMeF][NMeL][NMeF]D-Piperidide; lactam N-8)", 121),
    ("CC[C@H](C)[C@@H]1NC(=O)[C@H](C(C)C)N(C)C(=O)[C@H](C)N(C)C(=O)C[C@@H](C(=O)N2CCCCC2)NC(=O)[C@H](CC(C)C)NC(=O)[C@H](Cc2ccccc2)N(C)C(=O)[C@H](CC(C)C)N(C)C(=O)[C@H](CC(C)C)NC(=O)[C@H]([C@@H](C)O)NC(=O)[C@H](Cc2ccccc2)NC1=O [DP-488] ([NMeA][NMeV]IFTL[NMeL][NMeF]LD-Piperidide; lactam N-10)", 261),
]

Moving on to the next molecule.
According to the records, this molecule CC(C)C[C@H]1C(=O)N(C)[C@@H](Cc2ccccc2)C(=O)N(C)[C@@H](CC(C)C)C(=O)N[C@H](C(=O)N2CCCCC2)CC(=O)N[C@H](C)C(=O)N[C@@H](C)C(=O)N[C@@H]([C@@H](C)O)C(=O)N(C)[C@@H](C)C(=O)N[C@@H](Cc2ccccc2)C(=O)N1C [DP-263] ([dA]AT[NMeA]F[NMeL][NMeF][NMeL]D-Piperidide; lactam N-9) displays microsomal CLint at 1 uM of 136

Value source: patent US9409952B2
